- Assayed system: Acetylcholinesterase (Musca domestica)
- Sequence (Q7YWJ9 whole entry): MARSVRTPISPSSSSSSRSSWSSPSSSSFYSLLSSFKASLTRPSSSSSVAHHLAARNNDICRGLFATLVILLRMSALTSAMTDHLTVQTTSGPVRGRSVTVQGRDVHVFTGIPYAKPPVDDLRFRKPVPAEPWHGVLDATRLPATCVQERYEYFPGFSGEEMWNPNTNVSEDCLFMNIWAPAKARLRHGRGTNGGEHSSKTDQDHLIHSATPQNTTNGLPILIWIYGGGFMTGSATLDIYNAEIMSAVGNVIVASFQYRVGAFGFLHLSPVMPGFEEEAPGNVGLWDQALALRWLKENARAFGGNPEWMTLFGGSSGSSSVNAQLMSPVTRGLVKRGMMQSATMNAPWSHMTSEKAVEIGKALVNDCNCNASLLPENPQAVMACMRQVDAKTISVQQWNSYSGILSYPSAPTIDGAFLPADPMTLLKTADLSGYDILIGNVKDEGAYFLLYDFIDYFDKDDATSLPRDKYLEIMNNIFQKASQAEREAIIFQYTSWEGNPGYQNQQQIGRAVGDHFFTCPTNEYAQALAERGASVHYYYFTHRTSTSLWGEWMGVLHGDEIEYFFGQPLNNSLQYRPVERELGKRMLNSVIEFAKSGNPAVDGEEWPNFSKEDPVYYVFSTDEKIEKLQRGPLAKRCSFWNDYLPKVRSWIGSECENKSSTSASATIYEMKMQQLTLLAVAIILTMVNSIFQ
pIC50: −log10 of the molar value.
Measurement kind: pIC50

[ask] State its pIC50 on Acetylcholinesterase (Musca domestica): CCOP(=O)(SC(C)CC)N1CCSC1=O (stereo in doubt; (-)-8) [FOSTHIAZATE]
[reply] < 3.00

====

- Assay comment: Acute toxicity in Mus musculus (mouse)
- Assay type: organism-based
- Applied conditions: in vivo
Measurement kind: LD50 (mg/kg)
Please respond with the number in mg/kg and leave the unit unwritten.

[ask] Dear colleague, I am looking for the recorded LD50 of the following compound: CCOP(=O)(SC(C)CC)N1CCSC1=O (configuration not stated) [FOSTHIAZATE]
[reply] 127
